tested on: HTB-54 (lung carcinoma); assay: MTT viability assay, HTB-54; assay type: cell-based; details: HTB-54, 72 h, MTT; read-out: LC50 (the source's name)
measured_parameter: CC50
Please answer using the number first and the unit second.

Incoming: For the molecule C[Se](=O)O [MSA, Methylseleninic acid, reference compound] , what CC50 is on record?
Outgoing: 19.9 µM

* * *

test system: BEAS-2B (non-malignant bronchial epithelial); assay: MTT viability assay, BEAS-2B; assay type: cell-based; settings: BEAS-2B non-malignant, 72 h, MTT; read-out: LC50 (the source's name)
measured_parameter: CC50 (µM)
Could you give me the number in µM? Just the number is fine.

Incoming: Consider the compound shown here: C[Se](=O)O [MSA, Methylseleninic acid, reference compound] What is its recorded CC50?
Outgoing: 8.7

* * *

test system: PC-3 (prostate adenocarcinoma); experiment: MTT viability assay, PC-3; type: cell-based; details: PC-3, 72 h, MTT; read-out: LC50 (the source's name)
measured_parameter: CC50 (µM)
Quick note: give the figure in µM, leave out the unit.

Incoming: Entry C[Se](=O)O [MSA, Methylseleninic acid, reference compound] : reported CC50 = ?
Outgoing: 47.6

* * *

test system: 184B5 (non-malignant mammary epithelium); test: MTT viability assay, 184B5; format: cell-based; details: 184B5 non-malignant, 72 h, MTT; read-out: LC50 (the source's name)
measured_parameter: CC50

Incoming: Look up CC50: C[Se](=O)O [MSA, Methylseleninic acid, reference compound]
Outgoing: 13.1 µM

* * *

test: MTT viability assay, BEAS-2B; type: cell-based; details: human
measured_parameter: CC50 at 72 h (µM)
Give the number; µM is assumed, so skip it.

Incoming: Fill in the blank: the reported CC50 at 72 h of C[Se]C(=O)c1cnccn1 [Compound 3, Methyl pyrazinecarboselenoate] is ____.
Outgoing: 8.6

* * *

tested on: MCF7 (mammary adenocarcinoma); experiment: MTT viability assay, MCF7; type: cell-based; details: MCF7, 72 h, MTT; read-out: LC50 (the source's name)
measured_parameter: CC50

Incoming: Request the reported CC50 associated with C[Se](=O)O [MSA, Methylseleninic acid, reference compound]
Outgoing: 9.4 µM
